# Tested on: methicillin-sensitive Staphylococcus aureus (MSSA)
# METHOD DESCRIPTION: MIC, two-fold agar dilution (CLSI), clinical isolates
# Format: cell-based
# CONDITION DESCRIPTION: strain MSSA 14-3
EXPERIMENTAL ENDPOINT: MIC (anti-bacterial activity) (µg/mL)
Numbers only, in µg/mL.

Batch request: MIC (anti-bacterial activity) for each of the following compounds.
1. CCCC[C@H](CN(O)C=O)C(=O)N1CC2(CC2)C[C@H]1c1nc(-c2cccnc2)no1 [Example 11]
2. CCCC[C@H](CN(O)C=O)C(=O)N1CC2(CC2)C[C@H]1C(=O)Nc1cc[nH]n1 [Example 1]

1: 0.5; 2: 16

Batch request: MIC (anti-bacterial activity) for each of the following compounds.
1. CCCC[C@H](CN(O)C=O)C(=O)N1CC2(CC2)C[C@H]1C(=O)Nc1cc(C(C)(C)C)on1 [Example 3]
2. CCCC[C@H](CN(O)C=O)C(=O)N1CC2(CC2)C[C@H]1C(=O)Nc1ncccc1F [Example 5]

[0.25, 0.5]

----------
# System: Streptococcus pneoumoniae (SPN)
# METHOD DESCRIPTION: MIC, two-fold agar dilution (CLSI), clinical isolates
# Assay type: cell-based
# CONDITION DESCRIPTION: strain SPN 16-2
EXPERIMENTAL ENDPOINT: Anti-bacterial activity (MIC) (µg/mL)
Answers are plain numbers, in µg/mL.

Field: example entries. Status: answers known.
>  <MOLECULE>
CCCC[C@H](CN(O)C=O)C(=O)N1CCC[C@H]1C(=O)Nc1ccc(F)c[n+]1[O-] [LBM415, reference compound]

>  <SYSTEM UNDER TEST>
Streptococcus pneoumoniae (SPN)

>  <Anti-bacterial activity (MIC) (µg/mL)>
2

$$$$
>  <MOLECULE>
O=C(C[C@@H](CC1CCCC1)C(=O)N1CC2(CC2)C[C@H]1C(=O)Nc1ncccc1F)NO [Example 67]

>  <SYSTEM UNDER TEST>
Streptococcus pneoumoniae (SPN)

>  <Anti-bacterial activity (MIC) (µg/mL)>
0.25

$$$$
>  <MOLECULE>
O=C(C[C@@H](CC1CCCC1)C(=O)N1CC2(CC2)C[C@H]1c1nc2ccccc2[nH]1)NO [Example 75]

>  <SYSTEM UNDER TEST>
Streptococcus pneoumoniae (SPN)

>  <Anti-bacterial activity (MIC) (µg/mL)>
1

$$$$
>  <MOLECULE>
CCCC[C@H](CC(=O)NO)C(=O)N1CC2(CCCC2)C[C@H]1C(=O)Nc1cc(C)on1 [Example 80]

>  <SYSTEM UNDER TEST>
Streptococcus pneoumoniae (SPN)

>  <Anti-bacterial activity (MIC) (µg/mL)>
8

$$$$
>  <MOLECULE>
O=C(C[C@@H](CC1CCCC1)C(=O)N1CC2(CC2)C[C@H]1C(=O)Nc1nncs1)NO [Example 74]

>  <SYSTEM UNDER TEST>
Streptococcus pneoumoniae (SPN)

>  <Anti-bacterial activity (MIC) (µg/mL)>
32

$$$$
>  <MOLECULE>
CCCC[C@H](CC(=O)NO)C(=O)N1CC2(CCCC2)C[C@H]1C(=O)Nc1ccc(F)cn1 [Example 78]

>  <SYSTEM UNDER TEST>
Streptococcus pneoumoniae (SPN)

>  <Anti-bacterial activity (MIC) (µg/mL)>
0.03

$$$$

Batch request: Anti-bacterial activity (MIC) for each of the following molecules.
1. C[C@H]1COc2c(N3CCN(C)CC3)c(F)cc3c(=O)c(C(=O)O)cn1c23 [levofloxacin, reference compound]
2. O=C(C[C@@H](CC1CCCC1)C(=O)N1CC2(CC2)C[C@H]1C(=O)Nc1ncco1)NO [Example 69]

[1, 2]

----------
# Test system: Hela cervical cancer cell line
# METHOD DESCRIPTION: CCK-8 proliferation inhibition
# Assay type: cell-based
# CONDITION DESCRIPTION: Homo sapiens, 72 hours
EXPERIMENTAL ENDPOINT: pIC50
Numbers only, as −log10 of the molar value.

Which pIC50 value belongs to O=C(C[C@@H](CC1CCCC1)C(=O)N1CC2(CC2)C[C@H]1C(=O)Nc1ccc(F)cn1)NO [Example 64] ?
4.94

----------
# Tested on: Escherichia coli (including ESBLs, non-ESBLs)
# METHOD DESCRIPTION: MIC, two-fold agar dilution (CLSI), clinical isolates
# Assay type: cell-based
# CONDITION DESCRIPTION: strain ECO− 15-1
EXPERIMENTAL ENDPOINT: MIC (anti-bacterial activity) (µg/mL)
Answers are plain numbers, in µg/mL.

Field: example entries. Status: answers known.
>  <MOLECULE>
CC(C)(C)c1cc(NC(=O)[C@@H]2CC3(CC3)CN2C(=O)[C@H](CC2CCCC2)CN(O)C=O)no1

>  <SYSTEM UNDER TEST>
Escherichia coli (including ESBLs, non-ESBLs)

>  <EXPERIMENTAL RESULT>
16

$$$$
>  <MOLECULE>
CCCC[C@H](CN(O)C=O)C(=O)N1CC2(CC2)C[C@H]1C(=O)Nc1ccncn1

>  <SYSTEM UNDER TEST>
Escherichia coli (including ESBLs, non-ESBLs)

>  <EXPERIMENTAL RESULT>
32

$$$$
>  <MOLECULE>
O=CN(O)C[C@@H](CC1CCCC1)C(=O)N1CC2(CC2)C[C@H]1C(=O)Nc1cnccn1

>  <SYSTEM UNDER TEST>
Escherichia coli (including ESBLs, non-ESBLs)

>  <EXPERIMENTAL RESULT>
32

$$$$
>  <MOLECULE>
O=CN(O)C[C@@H](CC1CCCC1)C(=O)N1CC2(CC2)C[C@H]1C(=O)NC1CC1

>  <SYSTEM UNDER TEST>
Escherichia coli (including ESBLs, non-ESBLs)

>  <EXPERIMENTAL RESULT>
32

$$$$

Batch request: MIC (anti-bacterial activity) for each of the following molecules.
1. CCCC[C@H](CN(O)C=O)C(=O)N1CC2(CC2)C[C@H]1C(=O)Nc1cc(C)on1
2. O=CN(O)C[C@@H](CC1CCCC1)C(=O)N1CC2(CC2)C[C@H]1C(=O)Nc1ccc(F)cn1

1: 64; 2: 32

----------
Assignment: determine reported Anti-bacterial activity (MIC), strain ECO+ 15-1 for the given compounds.
# System: Escherichia coli (including ESBLs, non-ESBLs)
# METHOD DESCRIPTION: MIC, two-fold agar dilution (CLSI), clinical isolates
# Assay type: cell-based
# CONDITION DESCRIPTION: clinical isolate ECO+ 15-1
Please answer using a numeric value trailed by its unit.

Field: example entries. Status: answers known.
>  <COMPOUND>
CCCC[C@H](CC(=O)NO)C(=O)N1CC2(CC2)C[C@H]1C(=O)Nc1ccncn1

>  <EXPERIMENTAL RESULT>
32 µg/mL

$$$$
>  <COMPOUND>
CCCC[C@H](CC(=O)NO)C(=O)N1CC2(CC2)C[C@H]1C(=O)Nc1ccc(F)cn1

>  <EXPERIMENTAL RESULT>
32 µg/mL

$$$$
>  <COMPOUND>
O=C(C[C@@H](CC1CCCC1)C(=O)N1CC2(CC2)C[C@H]1C(=O)Nc1cccnn1)NO

>  <EXPERIMENTAL RESULT>
16 µg/mL

$$$$
>  <COMPOUND>
CCCC[C@H](CC(=O)NO)C(=O)N1CC2(CC2)C[C@H]1C(=O)Nc1nc(C(F)(F)F)cs1

>  <EXPERIMENTAL RESULT>
32 µg/mL

$$$$

Batch request: Anti-bacterial activity (MIC), strain ECO+ 15-1 for each of the following compounds.
1. O=C(C[C@@H](CC1CCCC1)C(=O)N1CC2(CC2)C[C@H]1c1nc2ccccc2[nH]1)NO
2. O=CN(O)C[C@@H](CC1CCCC1)C(=O)N1CC2(CC2)C[C@H]1C(=O)Nc1nccs1 (stereo in doubt)
3. O=C(C[C@@H](CC1CCCC1)C(=O)N1CC2(CC2)C[C@H]1C(=O)Nc1ncco1)NO

["16 µg/mL", "32 µg/mL", "32 µg/mL"]

----------
# Test system: Enterococcus faecium (EFM)
# METHOD DESCRIPTION: MIC, two-fold agar dilution (CLSI), clinical isolates
# Type: cell-based
# CONDITION DESCRIPTION: clinical isolate EFM 15-4
Assignment: determine reported Anti-bacterial activity (MIC), strain EFM 15-4 for the given compounds.

Field: example entries. Status: answers known.
>  <COMPOUND>
CCCC[C@H](CC(=O)NO)C(=O)N1CC2(CC2)C[C@H]1C(=O)NC1CC1 [Example 50]

>  <EXPERIMENTAL RESULT>
> 32 mg/L

$$$$
>  <COMPOUND>
O=C(C[C@@H](CC1CCCC1)C(=O)N1CC2(CC2)C[C@H]1C(=O)Nc1ccc(N2CCOCC2)cc1)NO [Example 61]

>  <EXPERIMENTAL RESULT>
> 32 mg/L

$$$$
>  <COMPOUND>
CCCC[C@H](CC(=O)NO)C(=O)N1CC2(CC2)C[C@H]1C(=O)Nc1ncco1 [Example 53]

>  <EXPERIMENTAL RESULT>
> 32 mg/L

$$$$
>  <COMPOUND>
CCCC[C@H](CC(=O)NO)C(=O)N1CC2(CC2)C[C@H]1C(=O)Nc1cccnn1 [Example 48]

>  <EXPERIMENTAL RESULT>
> 32 mg/L

$$$$
>  <COMPOUND>
CCCC[C@H](CC(=O)NO)C(=O)N1CC2(CC2)C[C@H]1C(=O)Nc1cc(C)on1 [Example 56]

>  <EXPERIMENTAL RESULT>
4 mg/L

$$$$
>  <COMPOUND>
CCCC[C@H](CC(=O)NO)C(=O)N1CC2(CC2)C[C@H]1c1nc2ccccc2[nH]1 [Example 58]

>  <EXPERIMENTAL RESULT>
8 mg/L

$$$$
>  <COMPOUND>
CCCC[C@H](CC(=O)NO)C(=O)N1CC2(CC2)C[C@H]1C(=O)Nc1ncccc1F [Example 49]

>  <EXPERIMENTAL RESULT>
> 32 mg/L

$$$$
>  <COMPOUND>
CCCC[C@H](CC(=O)NO)C(=O)N1CC2(CC2)C[C@H]1C(=O)Nc1ccc(F)cn1 [Example 46]

>  <EXPERIMENTAL RESULT>
> 32 mg/L

$$$$

Batch request: Anti-bacterial activity (MIC), strain EFM 15-4 for each of the following compounds.
1. CCCC[C@H](CC(=O)NO)C(=O)N1CC2(CC2)C[C@H]1C(=O)Nc1ccc(N2CCOCC2)cc1 [Example 43]
2. CCCC[C@H](CC(=O)NO)C(=O)N1CC2(CC2)C[C@H]1c1nc2ccccc2n1CCN(C)C [Example 60]

1. > 32 mg/L
2. > 32 mg/L
